# assay_overview: PK comparison of Compound 1 clinical data with literature PK of palbociclib
# Format: in vivo, human
# run_conditions: human, plasma, iv, […]2

- structure_smiles_string: "CN1CCN(c2ccc(Nc3ncc4cc5n(c4n3)C3(CCCCC3)CNC5=O)nc2)CC1"
  half-life / h: 7.9

====

# assay_overview: 14-day oral gavage toxicokinetic study in rats
# Assay type: in vivo
# run_conditions: male, rat, plasma, po, 15 mg/kg, Mean Compound 1 Plasma Concentration, rats, oral 15 mg/kg, Day 14, 2 h, Male

- structure_smiles_string: "CN1CCN(c2ccc(Nc3ncc4cc5n(c4n3)C3(CCCCC3)CNC5=O)nc2)CC1"
  concentration at 2 h / ng/mL: 1320

====

# assay_overview: 14-day oral gavage toxicokinetic study in rats
# Type: in vivo
# run_conditions: male, rat, plasma, po, 30 mg/kg, Mean Compound 1 Plasma Concentration, rats, oral 30 mg/kg, Day 1, 1 h, Male
measure: concentration at 1 h (ng/mL)

- structure_smiles_string: "CN1CCN(c2ccc(Nc3ncc4cc5n(c4n3)C3(CCCCC3)CNC5=O)nc2)CC1"
  measure: "concentration at 1 h"
  result_units: "ng/mL"
  endpoint_value: 1400

====

# assay_overview: 14-day oral gavage toxicokinetic study in rats
# Assay type: in vivo
# run_conditions: male, rat, plasma, po, 30 mg/kg, oral 30 mg/kg, Study Day 1, Male

- compound: "CN1CCN(c2ccc(Nc3ncc4cc5n(c4n3)C3(CCCCC3)CNC5=O)nc2)CC1 [Compound 1]"
  result_units: "ng/mL"
  Cmax: 2240

====

# assay_overview: 14-day oral gavage toxicokinetic study in rats
# Assay type: in vivo
# run_conditions: both sexes, rat, plasma, po, 30 mg/kg, oral 30 mg/kg, Study Day 1, Overall

- structure_smiles_string: "CN1CCN(c2ccc(Nc3ncc4cc5n(c4n3)C3(CCCCC3)CNC5=O)nc2)CC1"
  result_units: "h"
  Tmax: 4

====

# assay_overview: Single escalating dose IV infusion pharmacokinetics in healthy volunteers (noncompartmental)
# Format: in vivo, human
# run_conditions: both sexes, human, plasma, iv, 48 mg/m2, Cohort 4, 48 mg/m^2 IV; r6-8=Subjects 1-3,r10=Mean,r12=Min,r13=Median,r14=Max,r16=Geometric Mean

- structure_smiles_string: "CN1CCN(c2ccc(Nc3ncc4cc5n(c4n3)C3(CCCCC3)CNC5=O)nc2)CC1"
  result_units: "ng·h/mL"
  AUC(0-t): 453

====

# assay_overview: 14-day oral gavage toxicokinetic study in rats
# Assay type: in vivo
# run_conditions: both sexes, rat, plasma, po, 5 mg/kg, oral 5 mg/kg, Study Day 14, Overall
measure: Cmax (ng/mL)

- structure_smiles_string: "CN1CCN(c2ccc(Nc3ncc4cc5n(c4n3)C3(CCCCC3)CNC5=O)nc2)CC1"
  result_units: "ng/mL"
  endpoint_value: 470

====

# assay_overview: 14-day oral gavage toxicokinetic study in rats
# Type: in vivo
# run_conditions: both sexes, rat, plasma, po, 30 mg/kg, oral 30 mg/kg, Study Day 1, Overall
# Description: Plasma was obtained from blood samples collected from rats in a composite sampling scheme, with 3 samples collected per sex, per dose, at each target collection time, as illustrated in Table 21 to Table 25. […] The following parameters were determined: […] A value of 0 ng/mL was assigned to all values below the lower limit of quantitation (BLQ, <10.0 ng/mL). […] CL: Clearance (L/h/kg), calculated as the dose divided by AUC(0-t). […] Cmax/Dose: Normalized Cmax, calculated as Cmax divided by total dose. […]
measure: AUC(0-inf) (ng·h/mL)

- structure_smiles_string: "CN1CCN(c2ccc(Nc3ncc4cc5n(c4n3)C3(CCCCC3)CNC5=O)nc2)CC1"
  result_units: "ng·h/mL"
  endpoint_value: 39400
